In this section we review reported protein stability index values for a set of variants.
B1: LPCAT4 (parent)
chain: HDPLYGKLFSTYLRPPHTSRGTSQ

variants of: B1; test: protein stability index of a GFP-peptide fusion (GPS, HEK-293T) (PSI 1-6); higher = more stable; conditions: c terminus: a fixed tail appended;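 further: lentivirally expressed fusions sorted by FACS into six bins by GFP to DsRed ratio, PSI derived from sequencing read proportions per bin multiplied by bin number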
Please reply with the number alone, leaving off any unit.

Solved cases (4 shown):
- S19Y: 2.38
- S19K: 2.62
- K7M: 2.65
- R14K: 2.66

// protein stability index lookup, variant = Y12W , result: 2.53

Form field protein stability index, entry S10F : 1.96

Summary for this variant, R14P : protein stability index is 3.71

This collection of values is drawn from the supplement of paper PMC10567573.
